# TEST_DESCRIPTION: Acute toxicity (LD50)
# DETAILS: mouse, in vivo, iv, Maus; read-out: LD₅₀
PROPERTY_LABEL: LD50 (mg/kg)
Response body: numeric value in mg/kg, unit text excluded.

The recorded LD50 for CC(C)CCC[C@@H](C)[C@H]1CC[C@H]2[C@@H]3CC=C4C[C@@H](OP(=O)([O-])OCC[N+](C)(C)C)CC[C@]4(C)[C@H]3CC[C@]12C [CPC, Cholesteryl-phosphorylcholin] is 125

---

# TEST_DESCRIPTION: Acute toxicity (LD50)
# DETAILS: mouse, in vivo, po, Maus; read-out: LD₅₀
PROPERTY_LABEL: LD50 (mg/kg)
Response body: numeric value in mg/kg, unit text excluded.

The recorded LD50 for `CC(C)CCC[C@@H](C)[C@H]1CC[C@H]2[C@@H]3CC=C4C[C@@H](OP(=O)([O-])OCC[N+](C)(C)C)CC[C@]4(C)[C@H]3CC[C@]12C` is 4000
